Tested on: MKL-2
Experiment: qHTS assay to identify novel small-molecules to repurpose for Merkel cell carcinoma treatment (AID 1296009); also: nearly all actives have a fitted effect of over 60% in size
Conditions: MCC and control cell lines, CellTiter-Glo viability, 72 h; series mostly up to 46 µM
Inconclusive results are not listed. Activity calls are given as the source filed them. Calls follow the shape of the dose curve; as a rule, active = well fitted inhibition curve with a large enough effect; inconclusive = small, poorly fitted or top-dose-only effect; inactive = flat fitted curve, though single readings scatter.
Possible outcomes: active, inactive

In [3]: df
Out[3]:
                                   molecule  qualitative_label
0  O=C(CCN1CCN(CCO)CC1)N1c2ccccc2Sc2ccc(C(F)(F)F)cc21           inactive
1              Nc1nc2ccc([N+](=O)[O-])cc2s1           inactive
2                         CCOC(=O)c1ccccc1O           inactive
3  CO[C@@]1(NC(=O)Cc2cccs2)C(=O)N2C(C(=O)O)=C(COC(N)=O)CS[C@@H]21           inactive
4                                   N=C(N)N           inactive
5  CC(N)C(=O)OC(C)(C)Cc1ccc(Cl)cc1 (stereo not given)           inactive
6                  c1ccc2sc(SN3CCOCC3)nc2c1           inactive
7        CN1CCN(c2cc3c(nn2)Oc2ccccc2N3C)CC1           inactive
8                     CCCCCCOc1ccccc1C(N)=O           inactive
9          [O-][n+]1ccccc1SSc1cccc[n+]1[O-]             active
